Biological target: T1, Recombinant Human DLL4 (delta-like protein 4) (human, UniProt Q9NR61 27-524)
T1 construct: also called rHuman DLL4; Delta-like 4
Test: ELISA on coated DLL4, Fab at 100 nM (2-fold serial dilution)
Each entry below carries its reported ELISA signal.
Respond using a number only.

Fab VH5-51_IGHD5-18*01>3_IGHJ4*01 G100K/G104T T58D & V3-4_IGLJ1*01 (Fab, V domains shown, Fab; also called H:KT T58D & L:parent) VH: EVQLVQSGAEVKKPGESLKISCKGSGYSFTSYWIGWVRQMPGKGLEWMGIIYPGDSDDRYSPSFQGQVTISADKSISTAYLQWSSLKASDTAMYYCARRKYSYTYDYFDYWGQGTLVTVSS VL: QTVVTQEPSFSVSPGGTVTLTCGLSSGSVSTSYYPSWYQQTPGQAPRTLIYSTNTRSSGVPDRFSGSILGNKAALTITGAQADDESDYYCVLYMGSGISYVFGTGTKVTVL : 0.219
Fab VH5-51_IGHD5-18*01>3_IGHJ4*01 G100K/G104T T58A & V3-4_IGLJ1*01 (Fab, V domains shown, Fab; also called H:KT T58A & L:parent) VH: EVQLVQSGAEVKKPGESLKISCKGSGYSFTSYWIGWVRQMPGKGLEWMGIIYPGDSDARYSPSFQGQVTISADKSISTAYLQWSSLKASDTAMYYCARRKYSYTYDYFDYWGQGTLVTVSS VL: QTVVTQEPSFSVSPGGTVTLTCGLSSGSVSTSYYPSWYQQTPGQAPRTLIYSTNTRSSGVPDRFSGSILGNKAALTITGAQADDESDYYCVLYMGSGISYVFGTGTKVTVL : 0.253
Fab VH5-51_IGHD5-18*01>3_IGHJ4*01 G100K/G104T (KT) & V3-4_IGLJ1*01 R56Y (Fab, V domains shown, Fab; also called H:KT & L:R56Y) VH: EVQLVQSGAEVKKPGESLKISCKGSGYSFTSYWIGWVRQMPGKGLEWMGIIYPGDSDTRYSPSFQGQVTISADKSISTAYLQWSSLKASDTAMYYCARRKYSYTYDYFDYWGQGTLVTVSS VL: QTVVTQEPSFSVSPGGTVTLTCGLSSGSVSTSYYPSWYQQTPGQAPRTLIYSTNTYSSGVPDRFSGSILGNKAALTITGAQADDESDYYCVLYMGSGISYVFGTGTKVTVL : 0.231

ELISA signal lookup needed for Fab VH5-51_IGHD5-18*01>3_IGHJ4*01 G100K/G104T (KT) & V3-4_IGLJ1*01 R56A (Fab, V domains shown, Fab; also called H:KT & L:R56A) VH: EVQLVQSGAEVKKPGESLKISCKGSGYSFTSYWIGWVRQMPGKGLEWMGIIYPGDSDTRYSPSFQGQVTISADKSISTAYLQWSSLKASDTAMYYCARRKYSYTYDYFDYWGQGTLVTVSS VL: QTVVTQEPSFSVSPGGTVTLTCGLSSGSVSTSYYPSWYQQTPGQAPRTLIYSTNTASSGVPDRFSGSILGNKAALTITGAQADDESDYYCVLYMGSGISYVFGTGTKVTVL , thanks.
0.251

What value of ELISA signal has been reported for the following binder? Fab VH5-51_IGHD5-18*01>3_IGHJ4*01 G100K/G104T G24L & V3-4_IGLJ1*01 (Fab, V domains shown, Fab; also called H:KT G24L & L:parent) VH: EVQLVQSGAEVKKPGESLKISCKLSGYSFTSYWIGWVRQMPGKGLEWMGIIYPGDSDTRYSPSFQGQVTISADKSISTAYLQWSSLKASDTAMYYCARRKYSYTYDYFDYWGQGTLVTVSS VL: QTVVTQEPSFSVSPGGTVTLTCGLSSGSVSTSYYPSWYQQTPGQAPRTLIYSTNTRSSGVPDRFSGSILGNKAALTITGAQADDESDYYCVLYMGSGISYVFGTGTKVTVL
0.298
